Each recorded value in this set is attributed to the supplement of paper PMC9112550.

Reported shrunken log2 fold change values follow for various sequences
Test system: Escherichia coli TOP10
Test: shrunken log2 fold change of peptide-encoding DNA abundance (4.5 h post-induction vs induction); higher = less antimicrobial activity (less host growth inhibition)
Conditions: time post-induction: 4.5 h; library: site-saturation at positions 5, 18, 19, 20
Give the figure by itself; no unit, no explanation.

1. RRIRTRPPRLPRPRPRPVFLPRP    -0.56

Record `RRIRPRPPRLPRPRPRPITYPRP` . Reported shrunken log2 fold change: -0.782

Record `RRIRSRPPRLPRPRPRPLKYPRP` . Reported shrunken log2 fold change: -0.653

Record `RRIRMRPPRLPRPRPRPLWDPRP` . Reported shrunken log2 fold change: 0.437

Record `RRIRYRPPRLPRPRPRPMSIPRP` . Reported shrunken log2 fold change: -0.563

----------
System: Escherichia coli TOP10
Assay: shrunken log2 fold change of peptide-encoding DNA abundance (4.5 h post-induction vs induction); higher = less antimicrobial activity (less host growth inhibition)
Details: time post-induction: 4.5 h; library: site-saturation at positions 5, 18, 19, 20
Reported shrunken log2 fold change values follow for various sequences
Give the figure by itself; no unit, no explanation.

// solved cases for shrunken log2 fold change follow
1. RRIRLRPPRLPRPRPRPIGDPRP    -0.118
2. RRIRMRPPRLPRPRPRPTTCPRP    0.0613
3. RRIRRRPPRLPRPRPRPCGGPRP    0.686

Record `RRIRKRPPRLPRPRPRPHLAPRP` . Reported shrunken log2 fold change: 0.0615

Record `RRIRGRPPRLPRPRPRPNMKPRP` . Reported shrunken log2 fold change: 0.275

Record `RRIRWRPPRLPRPRPRPPSRPRP` . Reported shrunken log2 fold change: 0.314

Record `RRIRLRPPRLPRPRPRPIHLPRP` . Reported shrunken log2 fold change: -0.453

Record `RRIRYRPPRLPRPRPRPGVFPRP` . Reported shrunken log2 fold change: -0.0987

----------
Tested on: Escherichia coli TOP10
Experiment: shrunken log2 fold change of peptide-encoding DNA abundance (4.5 h post-induction vs induction); higher = less antimicrobial activity (less host growth inhibition)
Conditions: time post-induction: 4.5 h; library: site-saturation at positions 5, 18, 19, 20
Reported shrunken log2 fold change values follow for various sequences
Give the figure by itself; no unit, no explanation.

// solved cases for shrunken log2 fold change follow
1. RRIRRRPPRLPRPRPRPSDAPRP    -0.0697
2. RRIRWRPPRLPRPRPRPFNVPRP    -0.114
3. RRIRARPPRLPRPRPRPFIQPRP    0.0556
4. RRIRFRPPRLPRPRPRPMDEPRP    0.0137

Record `RRIRVRPPRLPRPRPRPPYKPRP` . Reported shrunken log2 fold change: -0.371

Record `RRIRFRPPRLPRPRPRPVCFPRP` . Reported shrunken log2 fold change: -0.151

Record `RRIRHRPPRLPRPRPRPMARPRP` . Reported shrunken log2 fold change: 0.0467

----------
Tested on: Escherichia coli TOP10
Experiment: shrunken log2 fold change of peptide-encoding DNA abundance (4.5 h post-induction vs induction); higher = less antimicrobial activity (less host growth inhibition)
Settings: time post-induction: 4.5 h; library: site-saturation at positions 5, 18, 19, 20
The class of a record is decided solely by its measured shrunken log2 fold change; consult low (below -0.1), moderate (-0.1 to below 0.2), high (0.2 or more)

Example results:
1) RRIRHRPPRLPRPRPRPHWHPRP    low
2) RRIRPRPPRLPRPRPRPTTIPRP    low
3) RRIRMRPPRLPRPRPRPRMDPRP    high

Query string: Exercise: read the entry `RRIRERPPRLPRPRPRPQLQPRP` and state which class it falls under.
Result string: moderate

Query string: Exercise: read the entry `RRIRSRPPRLPRPRPRPKHYPRP` and state which class it falls under.
Result string: low

Query string: Exercise: read the entry `RRIRNRPPRLPRPRPRPKHGPRP` and state which class it falls under.
Result string: moderate

Query string: Exercise: read the entry `RRIRLRPPRLPRPRPRPNVMPRP` and state which class it falls under.
Result string: moderate

Query string: Exercise: read the entry `RRIRERPPRLPRPRPRPLHSPRP` and state which class it falls under.
Result string: moderate

Query string: Exercise: read the entry `RRIRCRPPRLPRPRPRPNQLPRP` and state which class it falls under.
Result string: low

Query string: Exercise: read the entry `RRIRPRPPRLPRPRPRPEWRPRP` and state which class it falls under.
Result string: high

Query string: Exercise: read the entry `RRIRMRPPRLPRPRPRPLSFPRP` and state which class it falls under.
Result string: moderate

Query string: Exercise: read the entry `RRIRVRPPRLPRPRPRPMRFPRP` and state which class it falls under.
Result string: high

Query string: Exercise: read the entry `RRIRMRPPRLPRPRPRPRKYPRP` and state which class it falls under.
Result string: high

----------
Test system: Escherichia coli TOP10
Assay: shrunken log2 fold change of peptide-encoding DNA abundance (4.5 h post-induction vs induction); higher = less antimicrobial activity (less host growth inhibition)
Conditions: time post-induction: 4.5 h; library: site-saturation at positions 5, 18, 19, 20
recorded.endpoint: shrunken log2 fold change
Give the figure by itself; no unit, no explanation.

// solved cases for shrunken log2 fold change follow
1) RRIRLRPPRLPRPRPRPNYSPRP    -0.718
2) RRIRFRPPRLPRPRPRPFVWPRP    -0.0869
3) RRIRGRPPRLPRPRPRPHLYPRP    0.155
4) RRIRRRPPRLPRPRPRPTFHPRP    0.0529
5) RRIRERPPRLPRPRPRPLRVPRP    0.269
6) RRIRSRPPRLPRPRPRPIDMPRP    -0.00448
7) RRIRMRPPRLPRPRPRPQTFPRP    -0.0186
8) RRIRPRPPRLPRPRPRPWRPPRP    0.12

Record `RRIRWRPPRLPRPRPRPFENPRP` . Reported shrunken log2 fold change: -0.15

Record `RRIRVRPPRLPRPRPRPISCPRP` . Reported shrunken log2 fold change: 0.0771

Record `RRIRPRPPRLPRPRPRPIMAPRP` . Reported shrunken log2 fold change: -0.0956

----------
Tested on: Escherichia coli TOP10
Experiment: shrunken log2 fold change of peptide-encoding DNA abundance (4.5 h post-induction vs induction); higher = less antimicrobial activity (less host growth inhibition)
Conditions: time post-induction: 4.5 h; library: site-saturation at positions 5, 18, 19, 20
recorded.endpoint: shrunken log2 fold change
Give the figure by itself; no unit, no explanation.

// solved cases for shrunken log2 fold change follow
1. RRIRARPPRLPRPRPRPDIKPRP    -0.026
2. RRIRFRPPRLPRPRPRPSMPPRP    -0.331
3. RRIRKRPPRLPRPRPRPWHDPRP    -0.406
4. RRIRCRPPRLPRPRPRPKELPRP    -0.000896
5. RRIRCRPPRLPRPRPRPTIEPRP    -0.276
6. RRIRARPPRLPRPRPRPYFEPRP    -0.577
7. RRIRSRPPRLPRPRPRPEVLPRP    -0.0111
8. RRIRPRPPRLPRPRPRPKPHPRP    0.294

Would you kindly look at the next entry?
Record `RRIRKRPPRLPRPRPRPNEEPRP` . Reported shrunken log2 fold change: -1.35e-05

----------
Test system: Escherichia coli TOP10
Assay: shrunken log2 fold change of peptide-encoding DNA abundance (4.5 h post-induction vs induction); higher = less antimicrobial activity (less host growth inhibition)
Details: time post-induction: 4.5 h; library: site-saturation at positions 5, 18, 19, 20
recorded.endpoint: shrunken log2 fold change
Give the figure by itself; no unit, no explanation.

1. RRIRNRPPRLPRPRPRPIAYPRP    -0.0604
2. RRIRARPPRLPRPRPRPPVKPRP    0.404
3. RRIRMRPPRLPRPRPRPNGNPRP    0.261

Record `RRIRGRPPRLPRPRPRPQSHPRP` . Reported shrunken log2 fold change: 0.214

Record `RRIRERPPRLPRPRPRPNNIPRP` . Reported shrunken log2 fold change: -0.787

Record `RRIRRRPPRLPRPRPRPSFGPRP` . Reported shrunken log2 fold change: 0.365

----------
System: Escherichia coli TOP10;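 note: peptides expressed intracellularly from a pBAD plasmid library in pooled LB shake-flask culture, induced with 0.3% L-arabinose, DNA abundance read by NGS, three biological replicates, DESeq2 with apeglm shrinkage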
Assay: shrunken log2 fold change of peptide-encoding DNA abundance (4.5 h post-induction vs induction); higher = less antimicrobial activity (less host growth inhibition)
Conditions: time post-induction: 4.5 h; library: site-saturation at positions 5, 18, 19, 20
recorded.endpoint: shrunken log2 fold change
Give the figure by itself; no unit, no explanation.

1. RRIRARPPRLPRPRPRPVTHPRP    0.105
2. RRIRWRPPRLPRPRPRPTIYPRP    0.113
3. RRIRSRPPRLPRPRPRPPQWPRP    0.504
4. RRIRHRPPRLPRPRPRPMGWPRP    0.317
5. RRIRKRPPRLPRPRPRPEQLPRP    -0.0173

Record `RRIRWRPPRLPRPRPRPTYNPRP` . Reported shrunken log2 fold change: 0.4

Record `RRIRIRPPRLPRPRPRPIMWPRP` . Reported shrunken log2 fold change: -0.0162

Record `RRIRMRPPRLPRPRPRPCNKPRP` . Reported shrunken log2 fold change: -0.372

Record `RRIRYRPPRLPRPRPRPEETPRP` . Reported shrunken log2 fold change: -0.119

Record `RRIRQRPPRLPRPRPRPIGLPRP` . Reported shrunken log2 fold change: -0.00141

Record `RRIRHRPPRLPRPRPRPTVRPRP` . Reported shrunken log2 fold change: 0.165

Record `RRIRYRPPRLPRPRPRPLAKPRP` . Reported shrunken log2 fold change: 0.19

Record `RRIRYRPPRLPRPRPRPHWFPRP` . Reported shrunken log2 fold change: -0.402

Record `RRIRQRPPRLPRPRPRPPLWPRP` . Reported shrunken log2 fold change: 0.494

Record `RRIRRRPPRLPRPRPRPHRVPRP` . Reported shrunken log2 fold change: -0.0232

Record `RRIRKRPPRLPRPRPRPYQCPRP` . Reported shrunken log2 fold change: -0.0062

Record `RRIRLRPPRLPRPRPRPTAWPRP` . Reported shrunken log2 fold change: 0.222

Record `RRIRARPPRLPRPRPRPSWWPRP` . Reported shrunken log2 fold change: 0.695

Record `RRIRKRPPRLPRPRPRPCGCPRP` . Reported shrunken log2 fold change: 0.249

Record `RRIRTRPPRLPRPRPRPKCNPRP` . Reported shrunken log2 fold change: -0.221

Record `RRIRYRPPRLPRPRPRPRQKPRP` . Reported shrunken log2 fold change: 0.114

Record `RRIRCRPPRLPRPRPRPGMIPRP` . Reported shrunken log2 fold change: -0.0447

Record `RRIRWRPPRLPRPRPRPDICPRP` . Reported shrunken log2 fold change: -0.0379

Record `RRIRYRPPRLPRPRPRPDADPRP` . Reported shrunken log2 fold change: 0.00911

Record `RRIRIRPPRLPRPRPRPSHCPRP` . Reported shrunken log2 fold change: -0.505

Record `RRIRSRPPRLPRPRPRPKGMPRP` . Reported shrunken log2 fold change: -0.0819

Record `RRIRQRPPRLPRPRPRPEAWPRP` . Reported shrunken log2 fold change: 0.316

Record `RRIRHRPPRLPRPRPRPDGRPRP` . Reported shrunken log2 fold change: 0.172

Record `RRIRPRPPRLPRPRPRPEHLPRP` . Reported shrunken log2 fold change: -0.109

Record `RRIRDRPPRLPRPRPRPKRNPRP` . Reported shrunken log2 fold change: 0.136
